# subject_of_test: human A-beta(1-40) peptide, monomeric (BAM) (human, biotin at the C-terminus in capture ELISA, SPR and TR-FRET; not biotinylated where coated directly (Example 7))
# method_notes: cell-based or functional assay
property: Aggregation inhibition (% inhibition at 26 µM) (%)

Known Aggregation inhibition (% inhibition at 26 µM) results, listed for orientation:
Fab fragment of monoclonal antibody m266 (Fab, V domains shown, also called Fab266; m266Fab) VH: EVKLVESGGGLVQPGGSLKLSCAVSGFTFSRYSMSWVRQTPEKRLELVAQINSVGNSTYYPDTVKGRFTISRDNAEYTLSLQMSGLRSDDTATYYCASGDYWGQGTTLTVSS VL: DVVMTQTPLSLPVSLGDQASISCRSSQSLIYSDGNAYLHWFLQKPGQSPKLLIYKVSNRFSGVPDRFSGSGSGTDFTLKISRVETEDLGVYFCSQSTHVPWTFGGGTKLEIK | 82
reference VHH 2D2 (VHH, from WO2006/40153, made and purified like the other VHHs) VHH: AVQLVDSGGGLVQAGGSLRLSCAVSGGTFSSIGMGWFRQAPGKEREFVGAISRSGDSTYYADSVKGRFTISRDGAKNTVYLQMNSLKDEDTAVYYCAGRPAGTAINIRRSYNYWGQGTQVTVSS | 69

[a] ABII059 (VHH, humanized variant of ABII050) VHH: EVQLLESGGGLVQPGGSLRLSCAASGRTFNNYNMGWFRQAPGKGREFVAAVSRSGVSTYYADSVKGRFTISRDNSKNTVYLQMNSLRPEDTAVYYCAAAYRGTAINVRRSYSSWGQGTLVTVSS
[b] ABII035 (VHH, humanized variant of ABII002) VHH: EVQLLESGGGLVQPGGSLRLSCVHSGPTFRTDTMGWFRQAPGKGREFVAAVTWNSGRINYADSVKGRFTISRDNSKNTAYLQMNSLRPEDTAVYYCAAHRFVVGGNRVEDWRYWGQGTLVTVSS
Task: Of the two listed items, which has the higher Aggregation inhibition (% inhibition at 26 µM)? First: a Second: b I would appreciate it if you answered with the label of your choice.
Output: a
